# targetEntity: Growth factor receptor-bound protein 2 (Homo sapiens)
# Sequence (P62993 whole entry): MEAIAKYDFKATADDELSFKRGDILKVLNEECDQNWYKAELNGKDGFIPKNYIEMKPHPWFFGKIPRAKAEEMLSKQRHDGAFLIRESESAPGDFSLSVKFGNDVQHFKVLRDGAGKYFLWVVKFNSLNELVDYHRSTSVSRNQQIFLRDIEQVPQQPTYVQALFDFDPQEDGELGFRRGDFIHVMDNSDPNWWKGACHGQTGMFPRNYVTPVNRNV
measuredMetric: pKi
Scale explanation: pKi corresponds to minus log10 of a concentration expressed in moles per litre.

Write down the reported pKi of `NC(=O)C[C@@H]1NC(=O)C2(CCCCC2)NC(=O)C[C@@H](c2ccc(CP(=O)(O)O)cc2)/C=C/C[C@@H](Cc2cccc3ccccc23)CNC1=O` , test system: Growth factor receptor-bound protein 2 (Homo sapiens).
7.80

----------
# targetEntity: Growth factor receptor-bound protein 2 (Homo sapiens)
measuredMetric: IC50 (nM)
Kindly answer with a numeric value in nM, unit omitted.

Find the recorded IC50 belonging to `NC(=O)C[C@@H]1NC(=O)C2(CCCCC2)NC(=O)C[C@@H](c2ccc(CC(=O)O)cc2)/C=C/C[C@@H](Cc2cccc3ccccc23)CNC1=O` and report it.
740
